biological target: SRPK1 (Homo sapiens (Human), UniProt Q96SB4); test: In vitro kinase assay (Kinase-Glo), SRPK1 inhibition; type: biochemical; conditions: Table 2, SRPK1 inhibition assay
Sequence (Q96SB4 whole entry): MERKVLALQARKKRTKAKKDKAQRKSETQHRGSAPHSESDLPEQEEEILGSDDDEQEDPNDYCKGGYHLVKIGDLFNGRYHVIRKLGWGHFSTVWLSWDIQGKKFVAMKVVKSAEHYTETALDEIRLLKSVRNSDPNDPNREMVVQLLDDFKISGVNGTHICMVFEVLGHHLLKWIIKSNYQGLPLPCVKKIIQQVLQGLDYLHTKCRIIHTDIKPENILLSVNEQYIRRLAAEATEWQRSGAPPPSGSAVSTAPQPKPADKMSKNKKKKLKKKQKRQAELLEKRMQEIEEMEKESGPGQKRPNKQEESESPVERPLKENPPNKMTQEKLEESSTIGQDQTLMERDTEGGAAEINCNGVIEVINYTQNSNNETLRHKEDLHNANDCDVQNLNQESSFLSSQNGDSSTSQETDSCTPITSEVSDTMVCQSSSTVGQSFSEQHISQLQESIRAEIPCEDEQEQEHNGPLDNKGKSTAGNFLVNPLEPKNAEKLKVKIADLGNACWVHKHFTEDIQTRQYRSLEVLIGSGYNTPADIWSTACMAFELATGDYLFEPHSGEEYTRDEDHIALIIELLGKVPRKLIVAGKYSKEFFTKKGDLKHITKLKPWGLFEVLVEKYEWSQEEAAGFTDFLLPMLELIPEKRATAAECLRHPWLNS
pIC50: −log10 of the molar value.
MEASURED METRIC: pIC50

Guide cases for pIC50, answers given:
[[record]]
compound = "O=C(Nc1cc(C(F)(F)F)ccc1N1CCN(Cc2ccccn2)CC1)c1nc(-c2ccccc2)no1 [Compound 34]"
measured_metric = "pIC50"
measured_number = 5.28

[[record]]
compound = "O=C(Nc1cc(C(F)(F)F)ccc1N1CCN(Cc2ccccc2)CC1)c1ccco1 [Compound 19]"
measured_metric = "pIC50"
measured_number = 7.85

[[record]]
compound = "O=C(Nc1cc(C(F)(F)F)ccc1N1CCN(Cc2ccccc2)CC1)c1ccc(-c2cccnc2)o1 [Compound 21]"
measured_metric = "pIC50"
measured_number = 8.34


I: Cc1cnc(C(=O)Nc2cc(C(F)(F)F)ccc2N2CCN(Cc3ccccn3)CC2)o1 [Compound 27]
II: CN1CCN(c2ccc(C(F)(F)F)cc2NC(=O)c2nc(-c3ccccc3)c[nH]2)CC1 [Compound 41]
Problem: Name the one with the greater pIC50 value, either I or II as given. Your answer should be the label attached to the chosen record.
Solution: II

1: CSc1nccc(CN2CCN(c3ccc(C(F)(F)F)cc3NC(=O)c3ccc(C)o3)CC2)n1 [Compound 31]
2: Cc1nnc(C(=O)Nc2cc(C(F)(F)F)ccc2N2CCN(Cc3ccccn3)CC2)o1 [Compound 28]
Problem: Name the one with the greater pIC50 value, either 1 or 2 as given. Your answer should be the label attached to the chosen record.
Solution: 1
(1: 8.72, 2: 5.00)

A: O=C(Nc1cc(C(F)(F)F)ccc1N1CCN(Cc2cnccn2)CC1)c1ccco1 [Compound 43]
B: Cc1ccc(C(=O)Nc2cc(C(F)(F)F)ccc2N2CCN(Cc3ccccc3)CC2)o1 [Compound 20]
Problem: Between item A and item B , which reported pIC50 is smaller? Your answer should be the label attached to the chosen record.
Solution: A
(A: 6.74, B: 8.36)

* * *

assay: in vitro; details: human, liver microsomes
MEASURED METRIC: half-life (min)

a: Cc1ccc(C(=O)Nc2cc(C(F)(F)F)ccc2N2CCN(Cc3ccccc3)CC2)o1 [Compound 20]
b: O=C(Nc1cc(C(F)(F)F)ccc1N1CCN(Cc2ccccc2)CC1)c1ccc(-c2cccnc2)o1 [Compound 21]
Problem: Name the one with the greater half-life value, either a or b as given. Your answer should be the label attached to the chosen record.
Solution: b
(b: 62.5 min, a: 17 min)

* * *

experiment: in vitro; settings: human, microsomes
MEASURED METRIC: half-life (h)
Give a bare numeral; the unit h is implied.

Problem: Which value of half-life has been reported for O=C(Nc1cc(C(F)(F)F)ccc1N1CCN(Cc2ccccn2)CC1)c1ccc(-c2ccncc2)o1 in the records?
Solution: 1.02
